Exercise: state measured normalized growth for each of the compounds provided.
- Assay Details: chemical genetic growth profiling, strain panel (AID 1159580);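 note: tested at 20 µM; growth read once vehicle control cultures reached saturation at 30 °C; 1 = growth at the plate median or of vehicle wells; lower values mean less growth of the strain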
- Experimental Parameters: S. cerevisiae deletion strains, growth OD, locus YDR195W, strain ref2
The campaign covered roughly 5,500 compounds. About 2,000 (36%) were called active. About 18% were inconclusive and are not listed. The list shows a part of the results.
Give bare numbers.

Qu. In one line, give reported normalized growth of the entry COC(=O)c1cc(=O)c(O)c2c(O)c(O)ccc2c1 .
Ans. 0.934

Qu. For the compound CCOC(=O)n1ccn(C)c1=S , report normalized growth.
Ans. 0.976

Qu. In one line, give reported normalized growth of the entry O=C(NC(=O)c1ccccc1Cl)Nc1ccc(OC(F)(F)F)cc1 .
Ans. 1.11

Qu. // fetch normalized growth given entry OCCc1ccccc1
Ans. 0.947

Qu. // Input: COC(=O)/C=C/C(C)=C/C=C/C(C)=C/C=C/C=C(C)/C=C/C=C(C)/C=C/C(=O)O . Output its normalized growth only.
Ans. 0.993

Qu. Kindly indicate its recorded normalized growth. Item: O=S(=O)(O)CCS
Ans. 0.988

Please examine the following record next.
Qu. Name the recorded normalized growth of the compound listed here: NCCS(=O)(=O)O
Ans. 0.924

###

- Assay Details: chemical genetic growth profiling, strain panel (AID 1159580);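 note: tested at 20 µM; growth read once vehicle control cultures reached saturation at 30 °C; 1 = growth at the plate median or of vehicle wells; lower values mean less growth of the strain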
- Experimental Parameters: S. cerevisiae deletion strains, growth OD, locus YER015W, strain faa2, active compounds read low
Out of some 5,500 compounds screened, about 2,000 (36%) were called active. Roughly 18% stayed inconclusive and do not appear here. The list shows a part of the results.
Parameter: normalized growth
Answers are plain numbers.

Here are 6 molecules together with their reported answers.
Qu. Entry CCCCC/C=C/CCC(=O)N[C@H]1[C@H](Oc2c3cc4cc2Oc2ccc(cc2Cl)[C@@H](O[C@@H]2O[C@H](CO)[C@@H](O)[C@H](O)[C@H]2NC(C)=O)[C@@H]2NC(=O)[C@H](NC(=O)[C@@H]4NC(=O)[C@H]4NC(=O)C(Cc5ccc(c(Cl)c5)O3)NC(=O)[C@H](N)c3ccc(O)c(c3)Oc3cc(O)cc4c3)c3ccc(O)c(c3)-c3c(OC4O[C@H](CO)[C@@H](O)[C@H](O)[C@@H]4O)cc(O)cc3[C@@H](C(=O)O)NC2=O)O[C@H](CO)[C@@H](O)[C@@H]1O (some centres not stated) needs its normalized growth filled in; supply it.
Ans. 0.999

Qu. Specify normalized growth for C=C[C@@](C)(O)CCC1C(=C)C[C@H](OC(C)=O)C2C(C)(C)CCCC12C (some centres not stated) and stop.
Ans. 1.02

Qu. Look up normalized growth of COC(=O)c1cc(=O)c(O)c2c(O)c(O)ccc2c1 and report it.
Ans. 0.985

Qu. Give me measured normalized growth, please, for this molecule: O=c1cccc2ccc(O)c(O)c2c1O
Ans. 0.816

Qu. For the molecule O=S(=O)(O)c1cc(N=C=S)ccc1/C=C/c1ccc(N=C=S)cc1S(=O)(=O)O , report normalized growth.
Ans. 1.03

Qu. Provide only the value of recorded normalized growth for C=C[C@@](C)(O)CCC1C(=C)CCC2[C@@](C)(CO)CCC[C@]12C (some centres not stated)
Ans. 1

Now look at this one.
Qu. Could you please provide reported normalized growth for COc1ccc2c(c1)OC1(O)COc3cc(OC)c(OC)cc3C1=C2 (configuration not stated) ? Thanks!
Ans. 0.993

The origin of these recorded values is PubChem BioAssay AID1159580.
